- assayed-system: Glutamate receptor ionotropic, AMPA (Rattus norvegicus, UniProt P19490+P19491+P19492+P19493)
- assay-remarks: Tested for inhibition of Specific DL-[H]Ionotropic glutamate receptor AMPA binding to rat brain membranes
assay-readout: IC50

Please supply the value of reported IC50 for the item COc1noc(C)c1CC(N)C(=O)O (stereo unspecified)
> 100 µM
